experiment: Inhibition of [35S]GTP-gamma-S, binding from Opioid receptor delta 1 in Guinea pig Caudate stimulated by SNC80
recordedEndpoint: Ki (nM)
Kindly provide the numeric value in nM only, without the unit symbol.

Entry `C[C@@H]1CN(C/C=C/c2ccccc2)CC[C@]1(C)c1cccc(O)c1` — recorded Ki = 1.5
